These data points were gathered from patent US4684639A.

Listed here: compounds with reported MIC for Klebsiella aerogenes A.
QUANTITY: MIC (µg/mL)

CCN1CCN(C(=O)NC(C(=O)N[C@@H]2C(=O)N3[C@@H]2SC(C)(C)[C@@H]3C(=O)O)c2cc(OC(C)=O)c(OC(C)=O)cc2Br)C(=O)C1=O (stereo partly drawn); 1

P: CCN1CCN(C(=O)N[C@@H](C(=O)N[C@@H]2C(=O)N3[C@@H]2SC(C)(C)[C@@H]3C(=O)O)c2cc(O)c(O)cc2F)C(=O)C1=O
Q: CCN1CCN(C(=O)N[C@@H](C(=O)N[C@@H]2C(=O)N3[C@@H]2SC(C)(C)[C@@H]3C(=O)O)c2cc(OC(C)=O)c(OC(C)=O)cc2Cl)C(=O)C1=O
R: CCN1CCN(C(=O)NC(C(=O)N[C@@H]2C(=O)N3[C@@H]2SC(C)(C)[C@@H]3C(=O)O)c2cc(OC(C)=O)c(OC(C)=O)cc2F)C(=O)C1=O (stereo partly drawn)
Query: # ascending order, key=MIC Please list the labels in the order you were asked to rank them.
Response: Q, R, P
(Q: 0.25 µg/mL, R: 0.5 µg/mL, P: 1 µg/mL)
